Record: compiled Ki on 5-hydroxytryptamine receptor 1A (Rattus norvegicus, UniProt P19327) from multiple reports.
Sequence (P19327 whole entry): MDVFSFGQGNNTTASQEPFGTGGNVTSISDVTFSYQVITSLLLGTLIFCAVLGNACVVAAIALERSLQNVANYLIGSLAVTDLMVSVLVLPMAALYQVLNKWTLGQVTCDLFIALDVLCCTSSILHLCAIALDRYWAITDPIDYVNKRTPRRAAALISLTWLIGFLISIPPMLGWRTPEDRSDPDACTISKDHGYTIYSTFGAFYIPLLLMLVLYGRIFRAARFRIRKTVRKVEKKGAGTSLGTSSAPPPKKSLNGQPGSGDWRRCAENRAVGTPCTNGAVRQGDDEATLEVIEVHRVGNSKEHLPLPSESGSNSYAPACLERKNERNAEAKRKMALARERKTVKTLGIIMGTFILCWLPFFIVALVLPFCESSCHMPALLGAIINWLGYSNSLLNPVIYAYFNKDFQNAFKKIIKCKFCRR

Answered examples (10):
[[record]]
compound = "O=c1n(CCCN2CCN(c3ccc([N+](=O)[O-])cc3)CC2)c(O)c2n1CCC2"
observed = "> 10 µM"

[[record]]
compound = "O=c1n(CCCCNCc2cccs2)c(O)c2n1CCC2"
observed = "> 1 µM"

[[record]]
compound = "CN1C2CCC1CC(OC(c1ccccc1)c1ccccc1)C2 (stereo unspecified)"
observed = "> 10 µM"

[[record]]
compound = "CN(C)CCCN1c2ccccc2CCc2ccccc21"
observed = "> 10 µM"

[[record]]
compound = "O=c1n(CCN2CCN(c3ccccc3)CC2)c(O)c2n1CCCC2"
observed = "> 1 µM"

[[record]]
compound = "O=C(N[C@H]1CCN(CCc2ccccc2)C1)C12CC3CC(CC(C3)C1)C2"
observed = "0.026 µM"

[[record]]
compound = "O=c1n(CCN2CCN(c3ccc(F)cc3)CC2)c(O)c2n1CCC2"
observed = "> 10 µM"

[[record]]
compound = "O=c1n(CCCCNCc2cccc3ccccc23)c(O)c2n1CCC2"
observed = "> 1 µM"

[[record]]
compound = "O=C(NC1CCN(CCc2ccccc2F)C1)C12CC3CC(CC(C3)C1)C2 (stereo unspecified)"
observed = "0.02 µM"

[[record]]
compound = "CCCN(CCC)C1CCc2cc(CS(=O)(=O)c3ccc(OC)cc3)ccc2C1 (stereo unspecified)"
observed = "0.501 µM"


From here, focus on the item given below.
Query string: I'm curious: which Ki was measured for `COc1cc(N)c(Cl)cc1C(=O)CCC1CCN(CCNS(C)(=O)=O)CC1` tested on 5-hydroxytryptamine receptor 1A (Rattus norvegicus, UniProt P19327)?
Result string: 2 µM

* * *

pKi: −log10 of the molar value.
Across several studies, compounds have been characterized by their pKi on 5-hydroxytryptamine receptor 1A (Rattus norvegicus, UniProt P19327); a selection follows.

Solved entries:
[[record]]
compound = "O=c1n(CCCCN2CCN(c3ccc([N+](=O)[O-])cc3)CC2)c(O)c2n1CCC2"
result_type = "pKi"
observed = "< 6.00"

[[record]]
compound = "O=c1n(CCCCNCCc2cccs2)c(O)c2n1CCC2"
result_type = "pKi"
observed = "< 6.00"

[[record]]
compound = "O=c1n(CN2CCN(c3ccc([N+](=O)[O-])cc3)CC2)c(O)c2n1CCC2"
result_type = "pKi"
observed = "< 6.00"

[[record]]
compound = "CCN1CCCC1CNC(=O)c1cc(S(=O)(=O)CC)c(N)cc1OC (stereo not given)"
result_type = "pKi"
observed = "< 5.00"


Lab note: next compound to report on.
Query string: May I ask what pKi has been recorded for `O=c1n(CCCCNCc2ccccn2)c(O)c2n1CCC2` ?
Result string: < 6.00
